- Test system: KM12 colon
- procedureDetails: NCI-60 one-dose screen, 48 h
- particulars: 10 µM unless noted
Compounds without any hit were thinned out: in the full panel of roughly 83,000, 20% have a hit. Active and inactive are the calls of the source. How the source made its calls: active means growth percent below 10; inactive means the rest.
Labels: active, inactive

1. O=c1c2cc(F)ccc2sc2c(Nc3ccncc3)nc3ccccc3c12 : active
2. O=C(Nc1ccc(N2CCNCC2)cn1)c1[nH]ncc1Nc1ncnc2sc3c(c12)CCC3 : inactive
3. COc1ccccc1C(=O)/C=C/c1ccccc1 : inactive
4. C[n+]1c2ccccc2nc2ccc(NCCO)cc21 : inactive
5. Cc1ccc(OCCCCCCNCCO)c(C)c1 : inactive
6. O=C(Cc1ccccc1)NC(c1ccc(Cl)cc1)c1c(O)ccc2ccccc12 (stereo unspecified) : inactive
7. CC(C)c1ccc(S(=O)(=O)NC(=O)NC2CCCC2)cc1 : inactive
8. CC1(O)COCCCCOc2c(CN)cccc2NC(=O)c2nc(cnc2N)-c2ccc(cc2)S(=O)(=O)C(C)(C)C1 (stereo unspecified) : active
9. O=C(Nc1ccc(Cl)cc1)c1cc2ccccc2cc1OP(=O)(O)O : inactive
10. O=C1Nc2ccccc2/C1=C/c1ccc[nH]1 : inactive
11. COc1ccc(-c2nc(-c3ccccc3)c(-c3ccccc3)[nH]2)cc1OC1CCCCC1 : inactive
12. Nc1ccc(C2c3ccccc3Oc3ccccc32)cc1 : inactive
13. CC1=C(CC(=O)c2cccc([N+](=O)[O-])c2)C(=O)c2ccccc2C1=O : active
14. COC(=O)/C(CCC=C(C)C)=C1\[C@@H](OC(C)=O)C[C@@]2(C)[C@H]1C[C@@H](O)[C@H]1[C@@]3(C)CC[C@H](NCCO)[C@@H](C)[C@@H]3CC[C@@]12C : inactive
15. COc1ccc(-c2nsc3c2NC(=O)CC3c2ccc3c(c2)OCCO3)cc1 (stereo unspecified) : inactive
16. Cc1ccc2sc3c(NCCCNCCO)nc4ccccc4c3c(=O)c2c1 : active
17. NCCOc1ncccc1/C=C1\c2ccccc2-c2ccc(F)cc21 : active
18. NC(=O)CSc1nc(-c2ccc(F)cc2)cc(-c2ccco2)n1 : inactive
19. O=C(O)CCC(=O)c1ccc(C2CCCCCC2)cc1 : inactive
20. COc1ccc(Cn2c(Br)c3c(c2Br)-c2nc(N)sc2CC3)cc1 : inactive
21. COc1cc(/C=C2\CN(S(=O)(=O)c3ccccc3)C/C(=C\c3cc(CN4CCCC4)c(O)c(OC)c3)C2=O)cc(CN2CCCC2)c1O : active
22. COC(=O)/C(CCC=C(C)C)=C1\[C@@H](OC(C)=O)C[C@@]2(C)[C@H]1C[C@@H](O)[C@H]1[C@@]3(C)CC[C@H](NCCCNCCCCNCCCN)[C@@H](C)[C@@H]3CC[C@@]12C : inactive
23. Cn1c(C(=O)c2cccc3ccccc23)nc2ccccc21 : inactive
24. Nc1ccn(C2O[C@H](CO)[C@@H](O)[C@H]2O)c(=O)n1 (stereo partly specified) : inactive
25. COc1ccc(Cn2cc(Cn3c(=O)c(-c4nc5ccccc5[nH]4)cc4ccccc43)nn2)c(OC)c1OC : active
26. CCCCc1c(CCC)c(=N)c2ccccc2n1C : inactive
27. CN(C)CCCNCc1ccc(-c2ccc(F)c(Cl)c2)o1 : active
28. COc1cc(/C=C2\CCC/C(=C\c3cc(CN4CCOCC4)c(O)c(OC)c3)C2=O)cc(CN2CCOCC2)c1O : active
29. Cc1cc(Nc2ccc(OCc3ccccc3)cc2)nc2cc(O)ccc12 : inactive
30. CCOC(=O)c1ccc2[nH]c(-c3ccccc3)cc(=O)c2c1 : inactive
31. O=c1oc2ccc(F)cc2c(=O)n1-c1ccc(Cl)cc1F : active
32. CSc1nc2c(c(=O)n1C)N=C1c3ccccc3C(=O)C1C(c1ccccc1)N2 (stereo unspecified) : inactive
33. COc1ccc(-c2c(-c3ccc(OC)c(O)c3)cnc3ncnn23)cc1 : inactive
34. O=C(/C=C/c1ccc(C(F)(F)F)cc1)c1ccc(Nc2nc(NCCO)nc(N3CCOCC3)n2)cc1 : active
35. O=c1oc2ccc(Br)cc2c(=O)n1-c1ccc(Br)cc1F : active
36. CC(C)CCOc1ccc(-c2n[nH]c(C(F)(F)F)c2-c2cncc(C#N)c2)c(O)c1 : active
37. CCOC(=O)c1cc2c(n1Cc1ccccc1OC)-c1oncc1CCC2 : inactive
38. NS(=O)(=O)c1ccc(CCN=C=S)cc1 : active
39. COc1ccc(/C=C2\CCC/C(=C\c3ccc(OC)c(OC)c3)C2=O)cc1OC : active
40. Cc1nn(-c2nc3ccccc3[nH]2)c2c1C(c1ccc(OCC(N)=O)cc1)CC(=O)N2 (stereo unspecified) : inactive
41. CCCN1CCN(c2ccc3nc(-c4ccc5nc(-c6cc(OC)ccc6OC)[nH]c5c4)[nH]c3c2)CC1 : inactive

###

- System: A549/ATCC NSCLC
- procedureDetails: NCI-60 one-dose screen, 48 h
- particulars: 10 µM unless noted
This is part of a sample that, as a whole, favours compounds with a hit. Of some 83,000 tested, about 20% had one in any assay. Calls of active or inactive are those of the source. Rule for the calls: active = growth percent below 10; inactive = the rest.
Labels: active, inactive

1) CCOC(=O)c1sc(-c2ccc(OS(=O)(=O)c3ccc(Br)s3)c(C=O)c2)nc1C : inactive
2) CC(C)c1ccc(S(=O)(=O)NC(=O)NC2CCCC2)cc1 : inactive
3) COc1ccc(CN2CCCC(C(=O)c3ccc(C(F)(F)F)cc3)C2)c(O)c1 (centres undefined) : inactive
4) OC(c1ccccc1)c1nnc(SCc2ccccc2)n1Cc1ccccc1 (centres undefined) : inactive
5) CCC1=C[C@@H]2CN(C1)Cc1c([nH]c3ccccc13)[C@@](C(=O)OC)(c1cc3c(cc1OC)N(C)[C@H]1[C@@](O)(C(=O)OC)[C@H](OC(C)=O)[C@]4(CC)[C@@H]5C[C@@H]5CN5CC[C@]31[C@@H]54)C2 : inactive
6) CCOC(=O)c1c(C=O)nc2ccccc2c1/C=C/c1ccc(Cl)cc1 : inactive
7) OC(CNC1CCCCC1)Cn1c2ccc(I)cc2c2cc(I)ccc21 (centres undefined) : inactive
8) COc1ccc(-c2cn[nH]c2-c2cc(OC)c(OC)c(OC)c2)cc1OCc1ccccc1 : inactive
9) Nc1ccccc1-c1ccc(-c2ccc(Cl)cc2)c2c1[nH]c1ccccc12 : inactive
10) COC(=O)/C(=C\c1c(-c2ccccc2)[nH]c2ccccc12)S(C)(=O)=O : inactive
11) Cc1ccc(OCCCCCCNCCO)c(C)c1 : active
12) COc1ccc(-c2cc(=O)c3c(OC)c4ccoc4c(/C=C/C=O)c3o2)cc1 : inactive
13) COc1ccc(/C=c2\sc3n(c2=O)NC2C(N=3)N(C)C(=O)N2C)cc1 (centres undefined) : inactive
14) O=C1c2ccccc2C(=O)c2c1ccc1[nH]c(CCl)nc21 : inactive
15) COc1ccc(N(C)c2nc(N)nc3sc4c(c23)CCCC4)cc1 : inactive
16) COC(=O)/C(CCC=C(C)C)=C1\[C@@H](OC(C)=O)C[C@@]2(C)[C@H]1C[C@@H](O)[C@H]1[C@@]3(C)CC[C@H](NC(=O)c4cnccn4)[C@@H](C)[C@@H]3CC[C@@]12C : inactive
17) COc1ccccc1C1=C(Br)C(=O)c2nc(C)ccc2C1=O : inactive
18) CCOc1cccc(/C=N\Nc2nc(=O)cc(C(=O)OC)s2)c1O : inactive
19) CCOC(=O)C1=CN(C)C=C(C(=O)OCC)C1c1cc(Br)c(OCC)c(OC)c1 : inactive

###

- System: UO-31 renal
- procedureDetails: NCI-60 one-dose screen, 48 h (100 = growth as untreated, 0 = no growth, -100 = all killed)
- particulars: 10 µM unless noted
This is part of a sample that, as a whole, favours compounds with a hit. Of some 83,000 tested, about 20% had one in any assay.
We begin with a simple list: items and their reported growth.
reportedProperty: growth (%)

1) COc1ccc(/C=C2\N=C(c3ccccc3)N(c3ccc(-c4nc5ccc(C)cc5s4)cc3)C2=O)cc1 : 34.2
2) O=C(Nc1ccccc1O)c1ccc(-c2ccc(Cl)cc2Cl)o1 : 74
3) O=C(O)CCCN1C(=O)C2C3CCC(C3)C2C1=O (centres undefined) : 90.5
4) CC[C@@H](C)[C@H](NC(=O)Cn1cc(CNC(=O)[C@@H](NC(=O)OCc2ccccc2)C(C)C)nn1)C(=O)O : 95.1
5) O=c1c(-c2nc3ccccc3[nH]2)cc2ccccc2n1Cc1cn(Cc2ccccc2Cl)nn1 : -65.7
6) CCOC(=O)c1sc(-c2ccc(OS(=O)(=O)c3cccs3)c(C=O)c2)nc1C : -4.34
7) CCCC(c1nnnn1C1CCCCC1)N1CCN(C(=O)c2ccco2)CC1 (centres undefined) : 82.3
8) Cc1ccc(S(=O)(=O)c2c(COC(=O)c3cccc(C)c3)c(-c3ccccc3)nn2C)cc1 : 103
9) C=C1C(=O)O[C@H]2[C@H]1CC/C(COC(=O)/C=C\C(=O)O)=C\CC[C@@]1(C)O[C@@H]21 : 85.2
